// IC50 collected for hCA XII (Homo sapiens)
measuredParameter: IC50 (nM)

compound="COc1ccc2[nH]c(=O)c(/C=N/c3c(N)n(C)c(=O)[nH]c3=O)cc2c1 [Compound 10k]" measuredparameter=IC50 readoutnumber=540
compound="CCn1c(N)c(/N=C/c2cc3cc(OC)ccc3[nH]c2=O)c(=O)[nH]c1=O [Compound 10j]" measuredparameter=IC50 readoutnumber=620
compound="Cn1c(N)c(/N=C/c2cc3ccccc3[nH]c2=O)c(=O)[nH]c1=O [Compound 10d]" measuredparameter=IC50 readoutnumber=190
compound="Cc1cccc2cc(/C=N/c3c(N)n(C)c(=S)[nH]c3=O)c(=O)[nH]c12 [Compound 10g]" measuredparameter=IC50 readoutnumber=330

----------
# measuredOn: hCA XII (Homo sapiens, UniProt O43570)
# Sequence (O43570 25-354): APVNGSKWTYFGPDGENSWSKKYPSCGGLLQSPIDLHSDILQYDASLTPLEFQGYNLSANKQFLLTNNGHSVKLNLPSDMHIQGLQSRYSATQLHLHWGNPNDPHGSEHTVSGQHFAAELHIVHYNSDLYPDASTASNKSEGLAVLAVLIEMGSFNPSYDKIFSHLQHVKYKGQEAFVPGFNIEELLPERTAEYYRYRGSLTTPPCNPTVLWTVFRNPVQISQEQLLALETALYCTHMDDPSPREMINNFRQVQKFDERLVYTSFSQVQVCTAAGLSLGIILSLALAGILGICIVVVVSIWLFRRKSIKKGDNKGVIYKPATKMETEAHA
# measurementDescription: Carbonic anhydrase inhibition, colorimetric method (BioVision CA Inhibitor Screening Kit)
# settings: hCA XII over hCA II
measuredParameter: Selectivity index II/XII

compound="Cn1c(N)c(/N=C/c2cc3ccccc3[nH]c2=O)c(=O)[nH]c1=O [Compound 10d]" readoutnumber=1.37
compound="COc1ccc2[nH]c(=O)c(/C=N/c3c(N)n(Cc4ccccc4)c(=O)[nH]c3=O)cc2c1 [Compound 10i]" readoutnumber=4.60
compound="COc1ccc2[nH]c(=O)c(/C=N/c3c(N)n(C)c(=S)[nH]c3=O)cc2c1 [Compound 10l]" readoutnumber=9.75
compound="CCn1c(N)c(/N=C/c2cc3ccccc3[nH]c2=O)c(=O)[nH]c1=O [Compound 10c]" readoutnumber=1.37

----------
# measuredOn: hCA XII (Homo sapiens, UniProt O43570)
# measurementDescription: Carbonic anhydrase inhibition, colorimetric method (BioVision CA Inhibitor Screening Kit)
measuredParameter: Ki (µM)

compound="COc1ccc2[nH]c(=O)c(/C=N/c3c(N)n(C)c(=O)[nH]c3=O)cc2c1 [Compound 10k]" measuredparameter=Ki readoutnumber=0.3
compound="CCn1c(N)c(/N=C/c2cc3cccc(C)c3[nH]c2=O)c(=O)[nH]c1=O [Compound 10f]" measuredparameter=Ki readoutnumber=0.09
compound="CCn1c(N)c(/N=C/c2cc3cc(OC)ccc3[nH]c2=O)c(=O)[nH]c1=O [Compound 10j]" measuredparameter=Ki readoutnumber=0.34
compound="CCn1c(N)c(/N=C/c2cc3ccccc3[nH]c2=O)c(=O)[nH]c1=O [Compound 10c]" measuredparameter=Ki readoutnumber=0.27

----------
# measuredOn: hCA IX (Homo sapiens)
# measurementDescription: Carbonic anhydrase inhibition, colorimetric method (BioVision CA Inhibitor Screening Kit)
# settings: hCA IX over hCA II
Selectivity index II/IX listing for selected compounds.
measuredParameter: Selectivity index II/IX

compound="Nc1c(/N=C/c2cc3ccccc3[nH]c2=O)c(=O)[nH]c(=O)n1Cc1ccccc1 [Compound 10b]" measuredon="hCA IX (Homo sapiens)" measuredparameter="Selectivity index II/IX" readoutnumber=1.81
compound="COc1ccc2[nH]c(=O)c(/C=N/c3c(N)n(C)c(=O)[nH]c3=O)cc2c1 [Compound 10k]" measuredon="hCA IX (Homo sapiens)" measuredparameter="Selectivity index II/IX" readoutnumber=5.14
compound="CCn1c(N)c(/N=C/c2cc3cc(OC)ccc3[nH]c2=O)c(=O)[nH]c1=O [Compound 10j]" measuredon="hCA IX (Homo sapiens)" measuredparameter="Selectivity index II/IX" readoutnumber=2.98
compound="Nc1[nH]c(=O)[nH]c(=O)c1/N=C/c1cc2ccccc2[nH]c1=O [Compound 10a]" measuredon="hCA IX (Homo sapiens)" measuredparameter="Selectivity index II/IX" readoutnumber=2.09
